Source listed as patent US20160185837A1.

cAMP EC50: recorded values
testedSystem: human GLP-1 receptor (human, UniProt P43220 24-463)
experimentSummary: cell-based or functional assay
Give just the numeric value; nM need not be written.

binder	cAMP EC50 / nM
IP400 (Fc fusion) YSEGTHTSDLSKLLEEEAVRLFIEWLLAGGGGGGSGGGGSGGGGSGGGGSATHTCPPC	0.29
IP265 (Fc fusion) YSEGTFTSDYSKLLEEEAVRLFIEWLVKGPGKGGGSGGGGSGGGGSGGGGSATHTCPPCPAPEF	0.1
IP175 (Fc fusion) HGEGTFTSDVSSYMESQLVREFIAWLVKGAAAGGSGSTASSGSGSATGGGGAATHTCPPCPAPEF	0.051
IP415 (Fc fusion) HSQGTFTSDYSKILEEEAVRLFIEWLLAGGGSGGGGSGGGGSGGGGSGGGGSGGGGSGGGGSGGGGSACPPC	0.038

Ask: Please give the measured cAMP EC50 for this binder: IP293 (Fc fusion) YSEGTFTSDYSKLLEEEAVRCFIECLVKGPGGGGGGGGGGGGGGGGGGGGACPPC
Result: 1.6
